Ref: patent US12252534

biological target: T1, human CD3 on human T cells (Jurkat) (human, UniProt P07766 23-207; P04234 22-171; P09693 23-182); assay: flow cytometry, Jurkat cells, 40 nM antibody
T1 construct: whole, on cells; also called huCD3+; cell surface CD3 on human (Jurkat) T cells
T1 sequence (P07766 23-207, chain 1 of 3): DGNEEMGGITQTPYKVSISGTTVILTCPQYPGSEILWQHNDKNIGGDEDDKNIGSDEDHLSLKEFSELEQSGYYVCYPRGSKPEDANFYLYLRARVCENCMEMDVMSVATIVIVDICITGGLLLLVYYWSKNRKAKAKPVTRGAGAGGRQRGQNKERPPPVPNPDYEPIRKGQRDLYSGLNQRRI
T1 sequence (P04234 22-171, chain 2 of 3): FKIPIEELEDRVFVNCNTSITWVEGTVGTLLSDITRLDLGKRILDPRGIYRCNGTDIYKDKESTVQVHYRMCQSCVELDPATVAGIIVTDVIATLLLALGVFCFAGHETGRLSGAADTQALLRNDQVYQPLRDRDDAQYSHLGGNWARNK
T1 sequence (P09693 23-182, chain 3 of 3): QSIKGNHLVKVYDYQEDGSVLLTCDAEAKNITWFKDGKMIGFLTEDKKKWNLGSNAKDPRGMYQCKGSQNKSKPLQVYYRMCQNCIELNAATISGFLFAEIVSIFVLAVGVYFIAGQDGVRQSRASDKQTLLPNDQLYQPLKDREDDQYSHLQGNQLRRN
Lab note: anything with MFI below 10000 is marked Met; values at 10000 or higher are marked Not met.

State whether 10000 exceeds MFI recorded for HuL3H2 (Fab, V domains shown, Humanized Fab expressed in Expi293F; also called VL3 + VH2 humanized Fab) VH: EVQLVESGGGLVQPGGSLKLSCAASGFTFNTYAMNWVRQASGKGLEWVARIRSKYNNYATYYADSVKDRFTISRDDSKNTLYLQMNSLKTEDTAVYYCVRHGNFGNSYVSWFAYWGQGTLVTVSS VL: QAVVTQEPSLTVSPGGTVTLTCGSSTGAVTTSNYANWVQQKPGQAFRGLIGGTNKRAPWTPARFSGSLLGGKAALTISGAQPEDEAEYYCALWYSNLWVFGGGTKLTVL . Met

Determine if huL5H2 (heavy chain SEQ ID NO: 41 and light chain SEQ ID NO: 39) (Fab, V domains shown, also called VL5 kappa + H2 Fab) VH: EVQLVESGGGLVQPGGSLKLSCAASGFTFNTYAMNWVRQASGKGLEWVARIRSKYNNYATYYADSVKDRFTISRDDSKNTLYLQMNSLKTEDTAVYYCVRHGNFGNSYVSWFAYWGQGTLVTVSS VL: QAVVTQEPSLTVSPGGTVTLTCRSSTGAVTTSNYANWVQQKPDHLFRGLIGGTNKRAPGTPARFSGSLLGDKAALTISGAQPEDEAEYYCALWYSNLWVFGGGTKLTVLK shows MFI strictly lower than 10000. Not met

Is 10000 strictly greater than the binder's reported MFI? binder: HuL2H2 (Fab, V domains shown, Humanized Fab expressed in Expi293F; also called VL2 + VH2 humanized Fab) VH: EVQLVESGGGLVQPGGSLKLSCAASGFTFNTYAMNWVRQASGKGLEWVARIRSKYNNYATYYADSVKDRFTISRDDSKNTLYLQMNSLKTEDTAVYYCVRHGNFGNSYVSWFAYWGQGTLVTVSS VL: QAVVTQEPSLTVSPGGTVTLTCGSSTGAVTTSNYANWVQQKPGQAFRGLIYGTNKRAPWTPARFSGSLLGGKAALTISGAQPEDEAEYYCALWYSNLWVFGGGTKLTVL Met

Decide: MFI of HuL7H2 (Fab, V domains shown, Humanized Fab expressed in Expi293F; also called VL7 + VH2 humanized Fab) VH: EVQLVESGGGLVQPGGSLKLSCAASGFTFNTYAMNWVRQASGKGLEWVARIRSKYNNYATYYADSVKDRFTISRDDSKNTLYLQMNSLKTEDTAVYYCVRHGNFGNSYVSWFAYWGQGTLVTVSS VL: QAVVTQEPSLTVSPGGTVTLTCRSSTGAVTTSNYANWVQQKPGQAFRGLIGGTNKRAPGTPARFSGSLLGDKAALTISGAQPEDEAEYYCALWYSNLWVFGGGTKLTVL strictly below 10000? Not met
